ASSAY_SYSTEM: T1, thermolysin-cleaved EBOV GP on Jurkat-GP cells (cleaved GP) (Zaire ebolavirus, Makona (GP1 core …, strain))
T1 chain 1: not shown
T1 chain 2: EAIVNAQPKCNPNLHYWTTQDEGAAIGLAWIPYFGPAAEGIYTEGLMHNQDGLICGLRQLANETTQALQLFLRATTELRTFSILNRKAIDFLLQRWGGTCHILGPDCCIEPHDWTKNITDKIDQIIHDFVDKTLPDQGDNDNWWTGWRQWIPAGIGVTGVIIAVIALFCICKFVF
RECORDED_METRIC: binding result

[[record]]
binder = "15.0.c865 (antibody, V domains shown) VH: EVQLVESGGSVVRPGGSLRLSCAASVFTFENYGMSWVRQTPGKGLEWVSSINWNGANTGYADSVKGRFTVSRDNAKNSLYLQMNSLRAEDTALYYCARHRYDSSGQWYFDYWGQGTLVTVSS VL: SYELTQPPSVSVSPGQTARITCSGDALPKKYAYWYQQKPGQAPVLVIYEDSKRPSGIPERFSGSRSGTMATLTISGAQVADEADYYCYSPDSSGNHRIFGTGTKVTVL"
recorded_metric = "binding result"
endpoint_result = "binds"

[[record]]
binder = "5.6.c4395 (antibody, V domains shown) VH: EVQLVESGGGLVQPGGSLRLSCAASGFTFSTYEMNWVRQAPGKGLEWIAFIDDGGSTINYADSVKGRFTVSRDNAKNSLYLQMNSLRADDTAIYYCARVMTTSFYYYGVDVWGQGTTVTVSS VL: DIQMTQSPSIVSASVGDRVTITCRASQGVSYWLAWYQQKPGKAPKLLIYAASSLQSGVPSRFSGSGSGTDFTLTISSLQPEDFATYYCQQAHSFPWTFGQGTKVEMK"
recorded_metric = "binding result"
endpoint_result = "binds"

